- Assay Protocol: NCI Yeast Anticancer Drug Screen. Data for the rad50 strain (AID 155);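 note: 0% = growth of vehicle-only cultures of the same strain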
- Experimental Context: S. cerevisiae rad50 strain growth inhibition; at 50.0 µM; stronger effect = higher value
- Protocol: Growth inhibition of yeast strains with defined genetic alterations is measured as a screen for potential anti-cancer activity. Selected strains with alterations in DNA damage repair or cell cycle control were exposed to compounds and growth inhibition was measured relative to vehicle treated controls. The strain used in this assay is rad50
The panel holds about 79,000 compounds, 15% with a hit somewhere; the sample as a whole holds those more often. The source made the active and inactive calls. Cut-off read from the data, not from the text of the source: active = growth inhibition above about 70%; inactive = the rest.
Could you please report measured growth inhibition for the items listed next?

Illustrative cases are given below, each with its answer.
INSERT INTO results (molecule, result) VALUES
  ('C=CCCC(=O)CC(=O)OCC', '-25.1% (inactive)'),
  ('CC(O)C(O)C(O)C(=O)C=O (stereo not given)', '5.8% (inactive)'),
  ('O=C1CN(C(=O)c2ccccc2)C(=S)N1', '22.5% (inactive)'),
  ('CC(=O)NC(C)C#N (stereo not given)', '-15.4% (inactive)');

Lookup result for O=C(Nc1ccc2ccccc2c1)C(F)(F)F ; measured growth inhibition: -14.7% (inactive)
